Just for reference, patent US7074789B2 is where these values come from.

- Experimental System: Kdr (Homo sapiens)
- Construct: Kinases are expressed as either kinase domains or full length constructs; made in house
- Sequence (P35968 20-1356, species assumed): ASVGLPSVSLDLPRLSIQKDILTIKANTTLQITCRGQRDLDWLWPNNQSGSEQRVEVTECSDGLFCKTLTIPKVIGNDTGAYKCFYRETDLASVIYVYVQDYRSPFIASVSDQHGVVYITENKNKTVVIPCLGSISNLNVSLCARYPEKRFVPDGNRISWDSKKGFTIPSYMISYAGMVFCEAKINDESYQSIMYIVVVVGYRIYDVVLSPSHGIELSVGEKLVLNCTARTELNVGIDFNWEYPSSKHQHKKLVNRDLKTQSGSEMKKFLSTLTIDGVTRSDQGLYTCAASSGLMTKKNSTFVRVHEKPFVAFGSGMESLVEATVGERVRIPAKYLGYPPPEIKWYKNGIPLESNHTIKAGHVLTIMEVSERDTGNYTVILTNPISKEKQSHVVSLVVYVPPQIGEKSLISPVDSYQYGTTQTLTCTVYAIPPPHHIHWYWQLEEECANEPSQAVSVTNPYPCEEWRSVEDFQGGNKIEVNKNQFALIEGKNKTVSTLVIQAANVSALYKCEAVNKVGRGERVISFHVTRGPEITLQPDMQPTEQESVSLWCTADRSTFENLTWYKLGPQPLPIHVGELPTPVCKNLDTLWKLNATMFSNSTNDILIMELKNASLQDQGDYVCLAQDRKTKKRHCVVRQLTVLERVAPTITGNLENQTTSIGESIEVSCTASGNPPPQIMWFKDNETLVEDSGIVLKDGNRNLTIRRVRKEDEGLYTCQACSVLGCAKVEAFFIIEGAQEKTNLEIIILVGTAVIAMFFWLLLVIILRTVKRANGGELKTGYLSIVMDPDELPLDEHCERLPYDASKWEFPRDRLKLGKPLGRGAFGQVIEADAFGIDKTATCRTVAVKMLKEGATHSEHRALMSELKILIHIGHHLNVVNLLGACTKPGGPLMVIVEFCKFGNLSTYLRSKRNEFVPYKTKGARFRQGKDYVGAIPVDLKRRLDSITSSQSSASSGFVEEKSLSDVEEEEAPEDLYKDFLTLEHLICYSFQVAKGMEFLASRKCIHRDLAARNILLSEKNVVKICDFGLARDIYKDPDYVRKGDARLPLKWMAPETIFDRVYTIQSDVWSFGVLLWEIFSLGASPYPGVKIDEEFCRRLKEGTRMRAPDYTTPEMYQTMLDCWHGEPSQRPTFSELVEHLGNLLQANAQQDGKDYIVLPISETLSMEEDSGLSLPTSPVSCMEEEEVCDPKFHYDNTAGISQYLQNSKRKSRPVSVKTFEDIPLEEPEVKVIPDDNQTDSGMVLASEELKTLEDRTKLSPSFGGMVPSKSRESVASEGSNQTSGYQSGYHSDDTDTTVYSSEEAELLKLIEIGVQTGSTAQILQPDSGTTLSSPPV
- Measurement Notes: Kinase inhibition assay (33P transfer), Kdr
- Format: biochemical
- Condition Notes: Table 3; read-out: KDR-1
- From the text: The inhibitor compounds described herein are screened in the following manner. […] Kinases are expressed as either kinase domains or full length constructs fused to glutathione S-transferase (GST) or polyHistidine tagged fusion proteins in either E. colior Baculovirus-High Five expression systems. […]

{"Mol Smiles": "COc1cc(Nc2ncnc(Nc3ccc(C)c([N+](=O)[O-])c3)n2)cc(OC)c1OC", "Experimental System": "Kdr (Homo sapiens)", "IC50": "0.97 to 5.82 µM"}
{"Mol Smiles": "O=C(Nc1cccc(Nc2ncnc(-n3c(=O)[nH]c4ccccc43)n2)c1)O[C@@H]1CCOC1", "Experimental System": "Kdr (Homo sapiens)", "IC50": "0.923 to 5.54 µM"}
{"Mol Smiles": "Cc1cccc(Nc2ncnc(Nc3ccc(O)cc3)n2)c1", "Experimental System": "Kdr (Homo sapiens)", "IC50": "1.36 to 8.18 µM"}
{"Mol Smiles": "COc1cc(Nc2ncnc(N3CCc4ccc([N+](=O)[O-])cc43)n2)cc(OC)c1OC", "Experimental System": "Kdr (Homo sapiens)", "IC50": "5.65 to 8.25 µM"}
{"Mol Smiles": "COc1cc(Nc2ncnc(Nc3nc(C)cs3)n2)cc(OC)c1OC", "Experimental System": "Kdr (Homo sapiens)", "IC50": "1.07 to 6.41 µM"}
{"Mol Smiles": "COc1cc(Nc2ncnc(Nc3ccc4c(ccn4Cc4ccccc4)c3)n2)cc(OC)c1OC", "Experimental System": "Kdr (Homo sapiens)", "IC50": "0.829 to 4.97 µM"}
{"Mol Smiles": "Clc1cccc(Nc2ncnc(-n3cccc3)n2)c1", "Experimental System": "Kdr (Homo sapiens)", "IC50": "1.47 to 8.83 µM"}
{"Mol Smiles": "COc1cc(Nc2ncnc(Nc3ccc(Cl)cc3)n2)cc(OC)c1OC", "Experimental System": "Kdr (Homo sapiens)", "IC50": "< 1.03 µM"}
{"Mol Smiles": "COc1cc(Nc2ncnc(Nc3cccc(Cl)c3)n2)cc(OC)c1OC", "Experimental System": "Kdr (Homo sapiens)", "IC50": "< 1.03 µM"}
{"Mol Smiles": "COc1cc(Nc2ncnc(N(CCC(C)C)c3ccc(Cl)cc3)n2)cc(OC)c1OC", "Experimental System": "Kdr (Homo sapiens)", "IC50": "0.873 to 5.24 µM"}

---

- Experimental System: c-Met (Homo sapiens, UniProt P08581)
- Construct: Kinases are expressed as either kinase domains or full length constructs; made in house
- Sequence (P08581 25-1390): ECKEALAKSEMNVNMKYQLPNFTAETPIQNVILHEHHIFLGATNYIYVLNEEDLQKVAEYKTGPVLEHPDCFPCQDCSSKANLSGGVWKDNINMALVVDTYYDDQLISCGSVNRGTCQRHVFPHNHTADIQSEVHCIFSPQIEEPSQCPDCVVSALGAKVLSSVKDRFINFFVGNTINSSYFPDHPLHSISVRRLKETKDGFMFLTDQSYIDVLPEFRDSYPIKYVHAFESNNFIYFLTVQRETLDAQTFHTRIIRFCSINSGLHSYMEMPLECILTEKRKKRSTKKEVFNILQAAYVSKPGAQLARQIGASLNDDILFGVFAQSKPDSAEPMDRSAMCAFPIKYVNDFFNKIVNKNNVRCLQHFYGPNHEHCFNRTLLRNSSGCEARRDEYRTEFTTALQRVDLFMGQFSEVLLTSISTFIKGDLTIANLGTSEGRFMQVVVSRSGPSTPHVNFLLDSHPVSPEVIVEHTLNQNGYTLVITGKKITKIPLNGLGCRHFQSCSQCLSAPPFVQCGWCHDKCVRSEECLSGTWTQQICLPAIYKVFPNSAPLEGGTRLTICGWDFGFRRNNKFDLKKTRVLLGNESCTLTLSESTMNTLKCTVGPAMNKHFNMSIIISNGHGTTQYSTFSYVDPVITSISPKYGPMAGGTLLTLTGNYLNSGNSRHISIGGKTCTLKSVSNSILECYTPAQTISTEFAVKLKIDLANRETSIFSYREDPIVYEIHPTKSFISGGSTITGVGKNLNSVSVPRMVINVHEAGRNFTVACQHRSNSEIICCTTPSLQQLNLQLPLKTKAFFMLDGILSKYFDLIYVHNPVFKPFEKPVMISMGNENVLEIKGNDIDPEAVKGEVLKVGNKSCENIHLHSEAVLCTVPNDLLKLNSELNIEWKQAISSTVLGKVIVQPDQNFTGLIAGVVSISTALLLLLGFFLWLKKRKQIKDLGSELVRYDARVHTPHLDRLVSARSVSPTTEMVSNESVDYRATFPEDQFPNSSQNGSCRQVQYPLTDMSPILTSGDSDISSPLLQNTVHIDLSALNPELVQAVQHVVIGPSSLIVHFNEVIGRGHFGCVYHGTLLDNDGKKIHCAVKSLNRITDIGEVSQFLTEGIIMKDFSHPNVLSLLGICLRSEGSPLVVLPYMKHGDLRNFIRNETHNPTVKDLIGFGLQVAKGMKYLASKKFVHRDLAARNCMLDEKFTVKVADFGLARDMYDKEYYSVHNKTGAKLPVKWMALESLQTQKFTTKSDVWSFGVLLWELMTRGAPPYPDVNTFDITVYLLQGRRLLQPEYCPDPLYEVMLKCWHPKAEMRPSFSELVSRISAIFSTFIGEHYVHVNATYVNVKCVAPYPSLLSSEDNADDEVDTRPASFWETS
- Measurement Notes: Kinase inhibition assay (33P transfer), c-Met
- Type: biochemical
- Condition Notes: Table 2, kinase inhibition class; read-out: Met-1
Here the recorded IC50 is given for each entry.
Endpoint: IC50

{"Compound": "C=CCNc1ncccc1-c1ncnc(Nc2ccc(C(N)=O)cc2)n1", "Experimental System": "c-Met (Homo sapiens, UniProt P08581)", "Endpoint": "IC50", "Result": "> 13 µM"}
{"Compound": "COc1cc(Nc2ncnc(-c3cccnc3Cl)n2)cc(OC)c1OC", "Experimental System": "c-Met (Homo sapiens, UniProt P08581)", "Endpoint": "IC50", "Result": "> 12 µM"}
{"Compound": "Nc1nc2ccccc2n1-c1ncnc(Nc2cccc(Cl)c2)n1", "Experimental System": "c-Met (Homo sapiens, UniProt P08581)", "Endpoint": "IC50", "Result": "1.18 to 7.11 µM"}
{"Compound": "COc1cc(Nc2ncnc(Nc3cc(F)cc(C(F)(F)F)c3)n2)cc(OC)c1OC", "Experimental System": "c-Met (Homo sapiens, UniProt P08581)", "Endpoint": "IC50", "Result": "> 10.2 µM"}
{"Compound": "COc1ccc(Nc2ncnc(N(CC(=O)OC(C)(C)C)c3ccc4c(c3)OCO4)n2)cc1OC", "Experimental System": "c-Met (Homo sapiens, UniProt P08581)", "Endpoint": "IC50", "Result": "> 9.35 µM"}
{"Compound": "COc1cc(Nc2ncnc(-n3ccc4ccc(F)cc43)n2)cc(OC)c1OC", "Experimental System": "c-Met (Homo sapiens, UniProt P08581)", "Endpoint": "IC50", "Result": "> 11.4 µM"}
{"Compound": "c1ccc(Cn2ncc3cc(Nc4ncnc(Nc5ncccn5)n4)ccc32)cc1", "Experimental System": "c-Met (Homo sapiens, UniProt P08581)", "Endpoint": "IC50", "Result": "> 11.4 µM"}
{"Compound": "CN1CCN(Cc2cccc(Nc3ncnc(Nc4cccc5ccccc45)n3)c2)CC1", "Experimental System": "c-Met (Homo sapiens, UniProt P08581)", "Endpoint": "IC50", "Result": "8.22 to 10.6 µM"}
{"Compound": "COC(=O)C(c1ccccc1)c1ncnc(Nc2cc(OC)c(OC)c(OC)c2)n1 (stereo not drawn)", "Experimental System": "c-Met (Homo sapiens, UniProt P08581)", "Endpoint": "IC50", "Result": "> 11 µM"}
{"Compound": "COc1cc(Nc2ncnc(N3c4ccccc4CCC3C)n2)cc(OC)c1OC (stereo not drawn)", "Experimental System": "c-Met (Homo sapiens, UniProt P08581)", "Endpoint": "IC50", "Result": "< 0.982 µM"}
{"Compound": "COc1cc(Nc2ncnc(N3CCN(c4ccccn4)CC3)n2)cc(OC)c1OC", "Experimental System": "c-Met (Homo sapiens, UniProt P08581)", "Endpoint": "IC50", "Result": "> 10.6 µM"}
{"Compound": "COc1cc(Nc2ncnc(Nc3ccc(OCc4ccccc4)cc3)n2)cc(OC)c1", "Experimental System": "c-Met (Homo sapiens, UniProt P08581)", "Endpoint": "IC50", "Result": "8.15 to 10.5 µM"}
